- Format: in vivo, human
- measurement_context: human, plasma, po, 10 mg, Cmax, MTX 10 mg oral alone (Day 1), plasma, N = 1

[
  {
    "compound": "CN(Cc1cnc2nc(N)nc(N)c2n1)c1ccc(C(=O)N[C@@H](CCC(=O)O)C(=O)O)cc1 [MTX, methotrexate, reference compound]",
    "Cmax (ng/mL)": 323
  }
]
